Below, each entry is listed alongside its reported inhibition at 1 µM.
Tested on: SW-13 cells
Test: Cancer cell proliferation inhibition (Cell Counting Kit-8), adrenal cancer cell line
Assay type: cell-based
Settings: Homo sapiens, SW13, 264 h, 1000 nM, cultured seven to 11 days; read-out: % inhibition rate SW-13

Past entries and their recorded results:
[[record]]
molecule = "CSc1cc(C)[nH]c(=O)c1CNC(=O)c1cc(-c2ccc(N3C[C@@H](C)O[C@@H](C)C3)nc2)c2c(c1C)OC(C)([C@H]1CC[C@H](N(C)CC(F)(F)F)CC1)O2 (single isomer, unassigned) [Compound 107]"
experimental_system = "SW-13 cells"
result = "≤ 30%"

[[record]]
molecule = "CCN(C)c1ccc(-c2cc(C(=O)NCc3c(SC)cc(C)[nH]c3=O)c(C)c3c2OC(C)(C2CCN(CC(F)F)CC2)O3)cn1 (single isomer, unassigned) [Compound 88]"
experimental_system = "SW-13 cells"
result = "30 to 70%"

[[record]]
molecule = "CSc1cc(C)[nH]c(=O)c1CNC(=O)c1cc(-c2c(C)noc2C)c2c(c1C)OC(C)([C@H]1CC[C@H](N(C)C)CC1)O2 (relative stereo) [Compound 13]"
experimental_system = "SW-13 cells"
result = "≤ 30%"

[[record]]
molecule = "CSc1cc(C)[nH]c(=O)c1CNC(=O)c1cc(-c2ccc(N3CC(C)CC(C)C3)nc2)c2c(c1C)OC(C)([C@H]1CC[C@H](N(C)C)CC1)O2 (relative stereo) [Compound 16]"
experimental_system = "SW-13 cells"
result = "≥ 70%"

[[record]]
molecule = "CSc1cc(C)[nH]c(=O)c1CNC(=O)c1cc(-c2ccc(N3C[C@@H](C)O[C@@H](C)C3)nc2)c2c(c1C)OC(C)(C1CCN(CC(F)(F)F)CC1)O2 (single isomer, unassigned) [Compound 44]"
experimental_system = "SW-13 cells"
result = "30 to 70%"


Would you mind telling me what inhibition at 1 µM value was observed for CSc1cc(C)[nH]c(=O)c1CNC(=O)c1cc(-c2ccc(N3C[C@@H](C)O[C@@H](C)C3)nc2)c2c(c1C)OC(C)(C1CCN(CC(F)(F)F)CC1)O2 (some centres unmarked) [Compound 33] ?
30 to 70%

Ok, now CCN1CCC(C2(C)Oc3c(-c4cnc(N5CCOCC5)nc4)cc(C(=O)NCc4c(SC)cc(C)[nH]c4=O)c(C)c3O2)CC1 (single isomer, unassigned) [Compound 73]
30 to 70%

Ok, now CSc1cc(C)[nH]c(=O)c1CNC(=O)c1cc(-c2ccoc2)c2c(c1C)OC(C)([C@H]1CC[C@H](N(C)C)CC1)O2 (relative stereo) [Compound 18]
30 to 70%
